measured.target: MurE (Rv2158c) protein of M. tuberculosis H37Rv (Mycobacterium tuberculosis)
Reported values of pIC50 for individual entries
Would you please state pIC50, meaning minus log10 of the concentration in mol/L, as a bare number?

Reference set (4 entries):
- compound: "CCCCCCCCCC1NCCc2cc(O)c(O)cc21 (stereo not shown)"
  pIC50: 3.73
- compound: "Oc1cc2c(cc1O)C(c1cccc3c1OCO3)NCC2 (stereo not shown)"
  pIC50: 3.33
- compound: "COc1cc2c(c(O)c1OC)C[C@H]1c3c(cc4c(c3-2)OCO4)CCN1C [(S)-Leucoxine (1), (S)-Leucoxine]"
  pIC50: 3.09
- compound: "COc1ccc(Br)c2c1C(Cc1ccc3c(c1)OCO3)NCC2 (stereo not shown)"
  pIC50: 3.78

In the following, a different compound is considered.
MurE (Rv2158c) protein of M. tuberculosis H37Rv (Mycobacterium tuberculosis) assay, compound COc1cccc2c1C(Cc1ccc3c(c1)OCO3)NCC2 (stereo not shown) , recorded pIC50 = 3.52

---

measured.target: MurE (Rv2158c) protein of M. tuberculosis H37Rv (Mycobacterium tuberculosis, UniProt P9WJL3)
Sequence (P9WJL3 whole entry, looked up): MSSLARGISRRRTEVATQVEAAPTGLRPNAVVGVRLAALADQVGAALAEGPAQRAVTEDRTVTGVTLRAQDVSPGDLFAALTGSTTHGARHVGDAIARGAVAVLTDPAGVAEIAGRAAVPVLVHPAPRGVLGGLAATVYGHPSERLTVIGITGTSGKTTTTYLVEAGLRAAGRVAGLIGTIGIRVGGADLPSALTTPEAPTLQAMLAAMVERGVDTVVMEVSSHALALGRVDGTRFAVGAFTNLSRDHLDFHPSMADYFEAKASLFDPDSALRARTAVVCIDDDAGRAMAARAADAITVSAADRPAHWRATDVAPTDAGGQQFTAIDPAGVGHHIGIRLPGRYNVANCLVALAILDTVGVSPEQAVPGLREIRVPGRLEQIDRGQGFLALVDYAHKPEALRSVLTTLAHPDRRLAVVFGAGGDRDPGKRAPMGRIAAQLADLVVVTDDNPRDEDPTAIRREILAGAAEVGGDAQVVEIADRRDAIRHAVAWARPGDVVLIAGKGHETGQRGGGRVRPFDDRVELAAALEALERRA
// reported IC50 for each item listed
Express your answer in µM, writing the number without its unit.

Examples from the recorded data:
- compound: "Oc1cc2c(cc1O)C(Cc1ccc3c(c1)OCO3)NCC2 (stereo not shown)"
  IC50 (µM): 237
- compound: "Oc1ccc(CC2NCCc3cc(O)c(O)cc32)cc1 (stereo not shown)"
  IC50 (µM): 837

// recorded IC50 for Oc1cc2c(c(O)c1O)C(c1cccc3c1OCO3)NCC2 (stereo not shown) : 148

---

Known inhibition of a selection of molecules
measured.target: CYP 2D6 (Homo sapiens, UniProt P10635)
Construct: purchased; host or cells: baculosomes (insect-cell microsomes; own knowledge)
Sequence (P10635 whole entry): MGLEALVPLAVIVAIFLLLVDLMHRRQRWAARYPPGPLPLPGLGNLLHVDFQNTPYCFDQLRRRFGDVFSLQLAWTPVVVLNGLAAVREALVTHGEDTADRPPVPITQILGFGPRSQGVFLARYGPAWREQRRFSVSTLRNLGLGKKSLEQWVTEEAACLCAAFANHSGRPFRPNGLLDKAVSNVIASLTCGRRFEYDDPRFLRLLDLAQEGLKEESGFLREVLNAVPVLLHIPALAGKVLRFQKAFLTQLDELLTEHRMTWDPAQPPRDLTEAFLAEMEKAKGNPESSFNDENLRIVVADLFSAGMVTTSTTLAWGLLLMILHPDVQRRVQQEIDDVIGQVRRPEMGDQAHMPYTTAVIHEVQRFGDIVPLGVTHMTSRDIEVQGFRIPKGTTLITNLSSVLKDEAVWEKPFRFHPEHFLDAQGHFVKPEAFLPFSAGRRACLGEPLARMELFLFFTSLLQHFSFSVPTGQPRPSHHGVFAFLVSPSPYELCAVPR
assay.name: CYP450 inhibition assay, CYP 2D6
Format: in vitro ADME
Set-up: dose or concentration left out as unconfirmed
applied.conditions: CYP baculosomes with recombinant human CYP2D6, probe fluorogenic substrate (not named); human recombinant enzymes; read-out: Mean % inhibtion CYP 2D6

For orientation, consider the following solved cases.
- molecule: "Oc1ccc(Br)c2c1C(c1cccc3c1OCO3)NCC2 (stereo not drawn) [Compound 35]"
  measured.value: "80.7%"
- molecule: "Oc1ccc(Br)c2c1C(Cc1ccc3c(c1)OCO3)NCC2 (stereo not drawn) [Compound 28]"
  measured.value: "92.9%"

Now, please, on to the next molecule.
For reference, reported inhibition for O=c1cc(-c2ccccc2)oc2c1ccc1ccccc12 [α-naphthoflavone, reference compound] stands at 99.1%

---

assay.name: Aqueous kinetic solubility
Type: physicochemical
applied.conditions: aqueous with cosolvent or surfactant or cyclodextrin, kinetic from dmso stock, 5% DMSO in PBS, 21°C, read-out: aqueous solubility (class)
readout.type: solubility at 24 h

Field solubility at 24 h (entry Oc1ccc(Br)c2c1C(Cc1ccc3c(c1)OCO3)NCC2 (stereo not shown) [Compound 28] ) reads > 500 µg/mL

---

assay.name: Human hepatocyte stability assay
Format: in vitro ADME
Set-up: dose or concentration left out as unconfirmed
applied.conditions: human, hepatocytes; in vivo hepatic intrinsic clearance prediction values
List of hepatocyte CLint values.

- compound: "Oc1ccc(Br)c2c1C(Cc1ccc3c(c1)OCO3)NCC2 (centres unmarked)"
  hepatocyte CLint: "17.4 µL/min/1e6 cells"

Proceed to the following item.
The compound listed as Oc1ccc(Br)c2c1C(c1cccc3c1OCO3)NCC2 (centres unmarked) shows hepatocyte CLint equal to 12.6 µL/min/1e6 cells

---

assay.name: Human microsome stability assay
Assay type: in vitro ADME
Parameters: dose or concentration left out as unconfirmed
applied.conditions: human, liver microsomes, read-out: t1/2 microsomes
readout.type: half-life (min)
Your answer is read as min, so omit the unit and give the number.

- molecule: "Oc1ccc(Br)c2c1C(Cc1ccc3c(c1)OCO3)NCC2 (centres unmarked) [Compound 28]"
  half-life (min): 9.81

The molecule listed as Oc1ccc(Br)c2c1C(c1cccc3c1OCO3)NCC2 (centres unmarked) [Compound 35] has a reported half-life of 110

---

Quick reference for MIC among some molecules
Tested on: M. aurum

Known results for molecules:
- molecule: "COc1ccc(Cl)c2c1C(Cc1ccc3c(c1)OCO3)NCC2 (stereo not shown) [Compound 36]"
  measured.value: "60 µg/mL"
- molecule: "CO[C@H]1/C=C/O[C@@]2(C)Oc3c(C)c(O)c4c(O)c(c(/C=N/N5CCN(C)CC5)c(O)c4c3C2=O)NC(=O)/C(C)=C\\C=C\\[C@H](C)[C@H](O)[C@@H](C)[C@@H](O)[C@@H](C)[C@H](OC(C)=O)[C@@H]1C [Rifampicin, reference compound]"
  measured.value: "0.1 µg/mL"
- molecule: "Oc1cc2c(cc1O)C(Cc1ccc3c(c1)OCO3)NCC2 (stereo not shown) [Compound 20]"
  measured.value: "> 100 µg/mL"

// moving on: another record for MIC
The reported MIC value, M. aurum, for CCCCCCCCCC1NCCc2cc(O)c(O)cc21 (stereo not shown) [Compound 24] reads 100 µg/mL

---

The entries below are paired with their reported MIC.
Test system: M. bovis BCG Pasteur
assay.name: microbe, parasite or virus in culture
Type: cell-based
applied.conditions: Mycobacterium tuberculosis variant bovis BCG, BCG, read-out: MIC M. bovis BCG, SPOTi, value in square brackets

- compound: "Oc1ccc(Br)c2c1C(c1cccc3c1OCO3)NCC2 (centres unmarked) [Compound 35]"
  MIC: "172 µM"
- compound: "CN1C[C@H](O)c2cc(O)c(O)cc2[C@H]1c1cccc2c1OCO2 [Compound 32]"
  MIC: "> 317 µM"
- compound: "COc1ccc(Br)c2c1C(Cc1ccc3c(c1)OCO3)NCC2 (centres unmarked) [Compound 37]"
  MIC: "53 µM"
- compound: "CC1(C(=O)O)NCCc2cc(O)c(O)cc21 (centres unmarked) [Compound 22]"
  MIC: "> 448 µM"

# evaluate next
CC(C)=CCC[C@H](C)CC1NCCc2cc(O)c(O)cc21 (some centres unmarked) [Compound 13] yielded MIC of 346 µM

---

pIC50 overview
Test system: murine macrophage cell line RAW264.7
assay.name: Eukaryotic cell toxicity assay, RAW264.7
Format: cell-based
applied.conditions: Mus musculus; RAW264.7, value in square brackets; read-out: GIC50 RAW264.7
pIC50 here: minus log base 10 of the concentration, concentration in moles per litre.

Example results:
- molecule: "Oc1ccc2c(c1)CCNC2Cc1ccccc1 (stereo not shown)"
  measured.target: "murine macrophage cell line RAW264.7"
  pIC50: 3.17
- molecule: "Oc1ccc2c(c1)CCNC2c1cccc2c1OCO2 (stereo not shown)"
  measured.target: "murine macrophage cell line RAW264.7"
  pIC50: 3.17
- molecule: "O=C(O)[C@@H]1Cc2cc(O)c(O)cc2C(Cc2ccc3c(c2)OCO3)N1 (stereo partly shown)"
  measured.target: "murine macrophage cell line RAW264.7"
  pIC50: 3.27

// pIC50 lookup, molecule = COc1cc(CC2NCCc3cc(O)c(O)cc32)ccc1O (stereo not shown) , result: 3.78

Lab note: Oc1ccc(Br)c2c1C(Cc1ccc3c(c1)OCO3)NCC2 (stereo not shown) gave pIC50 of 3.89

---

Test system: murine macrophage cell line RAW264.7
assay.name: Eukaryotic cell toxicity assay, RAW264.7
Assay type: cell-based
applied.conditions: Mus musculus; RAW264.7, value in square brackets; read-out: GIC50 RAW264.7
# strict inequality: IC50 < 300 µM yields YES, everything else yields NO

For orientation, consider the following solved cases.
- compound: "CN1C[C@H](O)c2cc(O)c(O)cc2[C@@H]1c1cccc2c1OCO2"
  measured.target: "murine macrophage cell line RAW264.7"
  group: "NO"
- compound: "Oc1cc2c(cc1O)C(c1ccccn1)NCC2 (stereo not drawn)"
  measured.target: "murine macrophage cell line RAW264.7"
  group: "YES"
- compound: "C[C@@H]1NC(Cc2ccc3c(c2)OCO3)c2ccc(O)cc2[C@H]1O (stereo partly drawn)"
  measured.target: "murine macrophage cell line RAW264.7"
  group: "NO"
- compound: "COc1cccc2c1C(Cc1ccc3c(c1)OCO3)NCC2 (stereo not drawn)"
  measured.target: "murine macrophage cell line RAW264.7"
  group: "NO"

*Q* Consider the compound Oc1cc2c(cc1O)C(c1cncc3ccccc13)NCC2 (stereo not drawn) . Is its IC50 strictly less than 300 µM?
*A* NO

*Q* Criterion: IC50 strictly below 300 µM. Is it met by Oc1cccc(C2NCCc3cc(O)c(O)cc32)c1 (stereo not drawn) ?
*A* NO

*Q* Answer whether the compound COc1cc2c(c(O)c1OC)C[C@H]1c3c(cc4c(c3-2)OCO4)CCN1C [(S)-Leucoxine (1), (S)-Leucoxine] has IC50 strictly less than 300 µM
*A* NO

*Q* Given COc1ccc(I)c2c1C(Cc1ccc3c(c1)OCO3)NCC2 (stereo not drawn) , is recorded IC50 strictly lower than 300 µM?
*A* YES

*Q* Please determine if Oc1cccc(CC2NCCc3cc(O)c(O)cc32)c1 (stereo not drawn) is below 300 µM in terms of IC50.
*A* YES
